B1: HDV Ribozyme (parent)
chain: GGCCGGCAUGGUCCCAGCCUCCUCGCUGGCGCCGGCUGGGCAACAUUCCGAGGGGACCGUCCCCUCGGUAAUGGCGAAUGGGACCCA

Variants of: B1
TEST_DESCRIPTION: self-cleavage, relative activity (ratio to wild type); higher = more cleavage; co-transcriptional
READOUT_TYPE: self-cleavage
One number for each entry.

| VARIANT_SPEC | DATA_VALUE |
| --- | --- |
| A16U C62A | 0.897 |
| C15U C49G | 0.485 |

Provide the reported self-cleavage of each entry below, same order.
1. G38C G40U
2. A56U C57G
3. G5U C7A
4. G25A A77G
5. C13U U27A
6. G25U G38A
7. C32G G34A

Found:
[0.0332, 1.08, 0.566, 0, 1.29, 0.0511, 0.0875]

Provide the reported self-cleavage of each entry below, same order.
1. C41U G76C
2. G40C U65C
3. C22U G53A

Found:
0.861
0.155
0.821

Provide the reported self-cleavage of each entry below, same order.
1. C62U U79A
2. G29C G81C
3. C7G G50C
4. G11C G59A
5. C7U A78C
6. G5U C21U
7. C64A G80C

Found:
1: 0.95; 2: 0.18; 3: 0.138; 4: 0.434; 5: 0.0923; 6: 0.0462; 7: 0.125

Lookup: Consider the variant C18U C36U and give its recorded self-cleavage.
Found: 0.198
